target: WT Siglec-6 CHO cells (Homo sapiens); construct: expressed in transfected cells; experiment: Cell assay (liposome/EV binding, flow cytometry); format: cell-based; details: 3 mol% nGL in liposomes
Sequence (O43699 27-453): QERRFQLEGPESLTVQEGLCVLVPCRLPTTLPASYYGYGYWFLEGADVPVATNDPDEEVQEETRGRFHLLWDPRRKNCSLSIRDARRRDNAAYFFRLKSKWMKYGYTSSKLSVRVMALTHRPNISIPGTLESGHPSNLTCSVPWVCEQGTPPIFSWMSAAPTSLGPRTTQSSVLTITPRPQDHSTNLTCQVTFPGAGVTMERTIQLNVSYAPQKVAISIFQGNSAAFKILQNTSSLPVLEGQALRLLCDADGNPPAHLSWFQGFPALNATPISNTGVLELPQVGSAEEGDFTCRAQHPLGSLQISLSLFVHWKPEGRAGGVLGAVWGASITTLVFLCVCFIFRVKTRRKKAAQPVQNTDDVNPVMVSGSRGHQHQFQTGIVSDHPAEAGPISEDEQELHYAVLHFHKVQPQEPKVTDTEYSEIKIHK
recorded_endpoint: nGLL binding to WT Siglec-6 CHO cells (in words)

[
  {
    "compound": "CCCCCCCCCCCCCCCCOCC(COCCCCCCCCCCCCCCCC)OCc1cn(CCO[C@@H]2O[C@H](CO)[C@@H](O[C@@H]3O[C@H](CO[C@]4(C(=O)O)C[C@H](O)[C@@H](NC(C)=O)[C@H]([C@H](O)[C@H](O)CO)O4)[C@H](O)[C@H](O)[C@H]3O)[C@H](O)[C@H]2NC(C)=O)nn1 [nGL 10]",
    "data_value": "bound minimally"
  },
  {
    "compound": "CCCCCCCCCCCCCCCCOCC(COCCCCCCCCCCCCCCCC)OCc1cn(CCO[C@@H]2O[C@H](CO)[C@@H](O[C@@H]3O[C@H](CO[C@]4(C(=O)O)C[C@H](O)[C@@H](NC(C)=O)[C@H]([C@H](O)[C@H](O)CO)O4)[C@H](O)[C@H](O)[C@H]3O)[C@H](O)[C@H]2O)nn1 [nGL 8]",
    "data_value": "bound minimally"
  },
  {
    "compound": "CCCCCCCCCCCCCCCCOCC(COCCCCCCCCCCCCCCCC)OCC(=O)NCCO[C@@H]1O[C@H](CO)[C@@H](O[C@@H]2O[C@H](CO)[C@H](O[C@@H]3O[C@H](CO)[C@H](O)[C@H](O[C@@H]4O[C@H](CO)[C@H](O)[C@H](O)[C@H]4O)[C@H]3NC(C)=O)[C@H](O[C@]3(C(=O)O)C[C@H](O)[C@@H](NC(C)=O)[C@H]([C@H](O)[C@H](O)CO)O3)[C@H]2O)[C@H](O)[C@H]1O [nGL 3]",
    "data_value": "bound minimally"
  }
]
